Assay: AUC (0 to infinity) in female mouse at 20 mg/kg, po after 24 hrs
Assay type: ADME, organism-based
Design: time infinity, dose 20 mg/kg, route oral
Conditions: plasma
endpoint name: AUC(0-inf) (ng·h/mL)
Write the value in ng·h/mL as a bare number.

Entry COCCN1CCC(C(=O)NO)(S(=O)(=O)c2ccc(Oc3ccc(OC(F)(F)F)cc3)cc2)CC1 : reported AUC(0-inf) = ?
36100

* * *

Assay: Half life in rat at 20 mg/kg, po
Assay type: ADME, organism-based
Parameters: dose 20 mg/kg, route oral
Conditions: in vivo
endpoint name: half-life (h)
Write the value in h as a bare number.

Answered examples (4):
structure_string=C#CCN1CCC(C(=O)NO)(S(=O)(=O)c2ccc(Oc3ccc(C(C)C)cc3)cc2)CC1 reported_value=0.73
structure_string=O=C(NO)C1(S(=O)(=O)c2ccc(Oc3ccc(OC(F)(F)F)cc3)cc2)CCNCC1 reported_value=1.78
structure_string=O=C(NO)C1(S(=O)(=O)c2ccc(Oc3ccc(OC(F)(F)F)cc3)cc2)CCN(C2CC2)CC1 reported_value=2.85
structure_string=COCCN1CCC(C(=O)NO)(S(=O)(=O)c2ccc(Oc3ccc(OC(F)(F)F)cc3)cc2)CC1 reported_value=2.94

Please turn your attention to the following entry.
Entry O=C(NO)C1(S(=O)(=O)c2ccc(Oc3ccc4c(c3)OCCO4)cc2)CCN(C2CC2)CC1 : reported half-life = ?
3.3

* * *

Measured log10(IC50) on Collagenase 3 (Homo sapiens, UniProt P45452) follows.
A value of 2 here means IC50 of 100 in nM, since values are log10.

Answered examples (5):
structure_string=O=C(NO)C1(S(=O)(=O)c2ccc(Oc3ccc(C(F)(F)F)cc3)cc2)CCOCC1 endpoint_name=log10(IC50) reported_value=-0.40
structure_string=O=C(NO)C1(S(=O)(=O)c2ccc(Oc3ccc4c(c3)OCO4)cc2)CCN(C2CC2)CC1 endpoint_name=log10(IC50) reported_value=-0.52
structure_string=O=C(NO)C1(S(=O)(=O)c2ccc(Oc3cccc(C(F)(F)F)c3)cc2)CCOCC1 endpoint_name=log10(IC50) reported_value=-0.10
structure_string=C#CCN1CCC(C(=O)NO)(S(=O)(=O)c2ccc(Oc3ccc(C(C)C)cc3)cc2)CC1 endpoint_name=log10(IC50) reported_value=-0.60
structure_string=C#CCN1CCC(C(=O)NO)(S(=O)(=O)c2ccc(Oc3ccc(S(C)(=O)=O)cc3)cc2)CC1 endpoint_name=log10(IC50) reported_value=0.46

Please turn your attention to the following entry.
Find log10(IC50) (Collagenase 3 (Homo sapiens, UniProt P45452)) for the entry CC(C)Oc1ccc(Oc2ccc(S(=O)(=O)C3(C(=O)NO)CCN(C4CC4)CC3)cc2)cc1
-1.00

* * *

Assay: Oral bioavailability in female rat at 20 mg/kg after 24 hrs
Assay type: ADME, organism-based
Conditions: in vivo
endpoint name: bioavailability (%)
Write the value in % as a bare number.

Entry COCCN1CCC(C(=O)NO)(S(=O)(=O)c2ccc(Oc3ccc(OC(F)(F)F)cc3)cc2)CC1 : reported bioavailability = ?
82.2

* * *

Assay: Cmax in female rat at 20 mg/kg, po after 24 hrs
Assay type: ADME, organism-based
Parameters: dose 20 mg/kg, route oral
Details: in vivo
endpoint name: Cmax (µg/mL)
Write the value in µg/mL as a bare number.

Entry COCCN1CCC(C(=O)NO)(S(=O)(=O)c2ccc(Oc3ccc(OC(F)(F)F)cc3)cc2)CC1 : reported Cmax = ?
69.8

* * *

Experiment: Tmax in male mouse at 20 mg/kg, po after 24 hrs
Format: ADME, organism-based
Set-up: dose 20 mg/kg, route oral
Details: in vivo
endpoint name: Tmax (min)
Write the value in min as a bare number.

Entry COCCN1CCC(C(=O)NO)(S(=O)(=O)c2ccc(Oc3ccc(OC(F)(F)F)cc3)cc2)CC1 : reported Tmax = ?
10

* * *

Assay: Cmax in rat at 10 mg/mL, iv and po
Type: ADME, organism-based
Details: in vivo
endpoint name: Cmax (ng/mL)
Write the value in ng/mL as a bare number.

Answered examples (6):
structure_string=O=C(NO)C1(S(=O)(=O)c2ccc(Oc3ccncc3)cc2)CCOCC1 reported_value=1610
structure_string=O=C(NO)C1(S(=O)(=O)c2ccc(Oc3ccc(SC(F)(F)F)cc3)cc2)CCOCC1 reported_value=7270
structure_string=O=C(NO)C1(S(=O)(=O)c2ccc(Oc3ccc(OC(F)(F)F)cc3)cc2)CCOCC1 reported_value=8580
structure_string=O=C(NO)C1(S(=O)(=O)c2ccc(Oc3ccc(Cl)cc3)cc2)CCOCC1 reported_value=3120
structure_string=O=C(NO)C1(S(=O)(=O)c2ccc(Oc3ccccc3)cc2)CCOCC1 reported_value=872
structure_string=O=C(NO)C1(S(=O)(=O)c2ccc(Oc3ccc(C(F)(F)F)cc3)cc2)CCOCC1 reported_value=4300

Please turn your attention to the following entry.
Entry O=C(NO)C1(S(=O)(=O)c2ccc(Oc3cccc(C(F)(F)F)c3)cc2)CCOCC1 : reported Cmax = ?
1140

* * *

Assay: Tmax in male dog at 20 mg/kg, po after 24 hrs
Assay type: ADME, organism-based, Canis lupus familiaris
Parameters: dose 20 mg/kg, route oral
Details: in vivo
endpoint name: Tmax (min)
Write the value in min as a bare number.

Entry COCCN1CCC(C(=O)NO)(S(=O)(=O)c2ccc(Oc3ccc(OC(F)(F)F)cc3)cc2)CC1 : reported Tmax = ?
50

* * *

Experiment: Oral bioavailability in female dog at 20 mg/kg after 24 hrs
Format: ADME, organism-based, Canis lupus familiaris
Conditions: in vivo
endpoint name: bioavailability (%)
Write the value in % as a bare number.

Entry COCCN1CCC(C(=O)NO)(S(=O)(=O)c2ccc(Oc3ccc(OC(F)(F)F)cc3)cc2)CC1 : reported bioavailability = ?
69.2

* * *

Measured IC50 on Matrix metalloproteinase-9 (Homo sapiens) follows.
Sequence (P14780 whole entry): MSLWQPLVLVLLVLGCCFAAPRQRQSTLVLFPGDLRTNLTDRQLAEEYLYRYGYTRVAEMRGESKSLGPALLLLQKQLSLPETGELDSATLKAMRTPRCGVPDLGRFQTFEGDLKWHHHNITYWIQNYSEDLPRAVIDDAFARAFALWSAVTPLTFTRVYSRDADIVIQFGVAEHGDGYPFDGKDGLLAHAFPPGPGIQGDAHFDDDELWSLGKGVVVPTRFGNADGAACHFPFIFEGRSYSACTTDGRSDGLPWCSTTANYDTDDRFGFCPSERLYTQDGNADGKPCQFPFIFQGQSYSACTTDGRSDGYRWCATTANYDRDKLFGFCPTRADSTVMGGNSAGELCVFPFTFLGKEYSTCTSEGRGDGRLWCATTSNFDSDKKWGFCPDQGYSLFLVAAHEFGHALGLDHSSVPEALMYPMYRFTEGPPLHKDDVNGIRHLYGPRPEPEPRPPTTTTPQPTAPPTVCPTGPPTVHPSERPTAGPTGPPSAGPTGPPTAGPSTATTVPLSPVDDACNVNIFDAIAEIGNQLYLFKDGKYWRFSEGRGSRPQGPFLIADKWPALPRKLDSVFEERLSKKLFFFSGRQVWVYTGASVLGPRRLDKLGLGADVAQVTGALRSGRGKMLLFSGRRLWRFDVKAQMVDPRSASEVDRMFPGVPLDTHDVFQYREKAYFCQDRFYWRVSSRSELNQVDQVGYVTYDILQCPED

structure_string=CN1CCC(C(=O)NO)(S(=O)(=O)c2ccc(Oc3ccc(OC(F)(F)F)cc3)cc2)CC1 reported_value="0.18 nM"
structure_string=O=C(NO)C1(S(=O)(=O)c2ccc(Oc3ccc4c(c3)OCO4)cc2)CCN(C2CC2)CC1 reported_value="< 0.1 nM"

Please turn your attention to the following entry.
Find IC50 (Matrix metalloproteinase-9 (Homo sapiens)) for the entry O=C(NO)C1(S(=O)(=O)c2ccc(Oc3ccc(O)cc3)cc2)CCOCC1
< 0.1 nM

* * *

System: Rattus norvegicus
Test: Plasma concentration in rat at 20 mg/kg, po
Assay type: ADME, organism-based
Design: dose 20 mg/kg, route oral
Conditions: in vivo
endpoint name: Cp

Answered examples (6):
structure_string=C#CCN1CCC(C(=O)NO)(S(=O)(=O)c2ccc(Oc3ccc(C(C)C)cc3)cc2)CC1 endpoint_name=Cp reported_value="0.021 µg/mL"
structure_string=CCOCCN1CCC(C(=O)NO)(S(=O)(=O)c2ccc(Oc3ccc(OC(F)(F)F)cc3)cc2)CC1 endpoint_name=Cp reported_value="3.04 µg/mL"
structure_string=O=C(NO)C1(S(=O)(=O)c2ccc(Oc3ccc4c(c3)OCCO4)cc2)CCN(C2CC2)CC1 endpoint_name=Cp reported_value="0.015 µg/mL"
structure_string=O=C(NO)C1(S(=O)(=O)c2ccc(Oc3ccc(C(F)(F)F)cc3)cc2)CCN(CCN2CCOCC2)CC1 endpoint_name=Cp reported_value="0.073 µg/mL"
structure_string=O=C(NO)C1(S(=O)(=O)c2ccc(Oc3ccc(C(F)(F)F)cc3)cc2)CCNCC1 endpoint_name=Cp reported_value="0.15 µg/mL"
structure_string=O=C(NO)C1(S(=O)(=O)c2ccc(Oc3ccc(OC(F)(F)F)cc3)cc2)CCN(C2CC2)CC1 endpoint_name=Cp reported_value="0.44 µg/mL"

Entry COc1ccc(Oc2ccc(S(=O)(=O)C3(C(=O)NO)CCN(Cc4ccccn4)CC3)cc2)cc1 : reported Cp = ?
0.16 µg/mL

Entry O=C(NO)C1(S(=O)(=O)c2ccc(Oc3ccc(OC(F)(F)F)cc3)cc2)CCN(CCO)CC1 : reported Cp = ?
0.57 µg/mL

Entry C#CCN1CCC(C(=O)NO)(S(=O)(=O)c2ccc(Oc3ccc(OC)cc3)cc2)CC1 : reported Cp = ?
0.192 µg/mL

Entry CC(=O)N1CCC(C(=O)NO)(S(=O)(=O)c2ccc(Oc3ccc(OC(F)(F)F)cc3)cc2)CC1 : reported Cp = ?
0.072 µg/mL

Entry COCCN1CCC(C(=O)NO)(S(=O)(=O)c2ccc(Oc3ccc(SC(F)(F)F)cc3)cc2)CC1 : reported Cp = ?
14.078 µg/mL

Entry O=C(NO)C1(S(=O)(=O)c2ccc(Oc3ccc4c(c3)OCO4)cc2)CCNCC1 : reported Cp = ?
0.128 µg/mL

Entry CC(C)N1CCC(C(=O)NO)(S(=O)(=O)c2ccc(Oc3ccc(C(F)(F)F)cc3)cc2)CC1 : reported Cp = ?
0.429 µg/mL

Entry O=C(NO)C1(S(=O)(=O)c2ccc(Oc3ccc(C(F)(F)F)cc3)cc2)CCN(C2CC2)CC1 : reported Cp = ?
0.631 µg/mL

Entry O=C(NO)C1(S(=O)(=O)c2ccc(Oc3ccc(OC(F)(F)F)cc3)cc2)CCN(Cc2cccnc2)CC1 : reported Cp = ?
1.9 µg/mL

Entry O=C(NO)C1(S(=O)(=O)c2ccc(Oc3ccc(OC(F)(F)F)cc3)cc2)CCNCC1 : reported Cp = ?
0.223 µg/mL

Entry O=C(NO)C1(S(=O)(=O)c2ccc(Oc3ccc(OC(F)(F)F)cc3)cc2)CCN(Cc2ccccn2)CC1 : reported Cp = ?
1.85 µg/mL
